Provenance of the data: patent US9581587B2

The following molecules are shown together with reported Dead Intensity values.
tested on: membrane compromised sperm; assay: Dead gate intensity divided by live gate intensity, flow cytometer (Example 5); assay type: cell-based; conditions: dye 62.5 μM; Hoechst 16 μL/2 mL
Numbers only; they are read as %.

Use the examples below as a reference point.
{"columns": ["MOLECULE", "MEASURED NUMBER"],
 "data": [
  ["COc1cc(S(=O)(=O)O)c(C)cc1N=Nc1c(O)ccc2cc(S(=O)(=O)O)ccc12 [Red 40, reference compound]", 50],
  ["O=S(=O)([O-])c1ccc(N=Nc2c(O)ccc3cc(S(=O)(=O)[O-])ccc23)cc1.[Na+].[Na+] [Yellow 6]", 52],
  ["O=S1(=O)OC(c2ccc(O)cc2)(c2ccc(O)cc2)c2ccccc21 [Phenol Red, phenolsulfonphthalein]", 80]
]}

Please find the next molecule below.
Please look at this molecule and report its Dead Intensity: O=C([O-])C1=NN(c2ccc(S(=O)(=O)[O-])cc2)C(=O)/C1=N/Nc1ccc(S(=O)(=O)[O-])cc1.[Na+].[Na+].[Na+] [Yellow 5]
70
